Measured kon by item
SUBJECT OF TEST: T1, recombinant human IL-23 (human, UniProt Q9NPF7 20-189; P29460 23-328)
T1 construct: also called hIL-23
T1 sequence 1: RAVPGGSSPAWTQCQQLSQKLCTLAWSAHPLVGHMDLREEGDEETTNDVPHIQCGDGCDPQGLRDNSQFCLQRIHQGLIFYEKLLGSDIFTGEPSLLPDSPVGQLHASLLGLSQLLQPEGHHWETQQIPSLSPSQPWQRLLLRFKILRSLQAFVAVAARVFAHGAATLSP
T1 sequence 2: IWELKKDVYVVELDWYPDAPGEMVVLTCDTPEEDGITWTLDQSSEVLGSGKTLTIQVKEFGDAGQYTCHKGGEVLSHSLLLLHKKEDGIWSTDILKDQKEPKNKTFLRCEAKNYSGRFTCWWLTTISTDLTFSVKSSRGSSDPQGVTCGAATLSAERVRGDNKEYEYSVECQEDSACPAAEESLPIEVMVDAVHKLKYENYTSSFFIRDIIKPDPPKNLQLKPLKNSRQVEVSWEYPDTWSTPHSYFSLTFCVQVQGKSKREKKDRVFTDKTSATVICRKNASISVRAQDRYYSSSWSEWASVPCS
PROTOCOL NOTES: SPR (Biacore T100), tissue culture supernatant antibody captured on anti-human IgG, IL-23 analyte
Give the number; M⁻¹ s⁻¹ is assumed, so skip it.

[[record]]
binder = "A6M4 (antibody, human IgG1, kappa, V domains shown, Full length chains) VH: QVQLVQSGAEVKKPGSSVKVSCKASGYTFTSYGITWVRQAPGQGLEWMGENYPRSGNTYYNEKFKGRVTITADKSTSTAYMELSSLRSEDTAVYYCARVEFISTVVAPYYYALDYWGQGTLVTVSS VL: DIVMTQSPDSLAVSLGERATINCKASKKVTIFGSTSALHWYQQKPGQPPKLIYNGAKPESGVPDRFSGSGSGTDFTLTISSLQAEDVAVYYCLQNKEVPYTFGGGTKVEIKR"
units_text = "M⁻¹ s⁻¹"
value_reported = "3.22e+06"

[[record]]
binder = "A12.5M4 (antibody, V domains shown) VH: QVQLVQSGAEVKKPGSSVKVSCKASGYTFASYGITWVRQAPGQGLEWMGENYPRSGNTYYNEKFKGRVTITADKSTSTAYMELSSLRSEDTAVYYCARVEFISTVVAPYYYALDYWGQGTLVTVSS VL: DIVMTQSPDSLAVSLGERATINCKASKKVTIFGSTSALHWYQQKPGQPPKLIYNGAKPESGVPDRFSGSGSGTDFTLTISSLQAEDVAVYYCLQNKEVPYTFGGGTKVEIK"
units_text = "M⁻¹ s⁻¹"
value_reported = "3.12e+06"


Turning now to a further binder:
response.value for A3M4 (antibody, human IgG1, kappa, V domains shown, Full length chains) VH: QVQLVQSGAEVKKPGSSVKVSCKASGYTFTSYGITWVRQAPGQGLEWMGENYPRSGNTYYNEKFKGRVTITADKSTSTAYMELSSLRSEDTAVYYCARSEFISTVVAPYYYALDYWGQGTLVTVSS VL: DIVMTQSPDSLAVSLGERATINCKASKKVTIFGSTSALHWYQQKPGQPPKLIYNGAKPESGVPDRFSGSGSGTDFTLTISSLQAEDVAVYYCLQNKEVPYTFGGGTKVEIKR (field: kon) = 1.36e+06

Taken from patent US20090123479A1.
